All figures here come from paper PMC3090393.

target: PBP2a (Staphylococcus aureus, UniProt P07944); construct: made in house; experiment: PBP2a enzymatic inhibition assay (fluorescein-labeled ampicillin, residual penicillin binding activity); format: biochemical, Staphylococcus aureus ATCC 43300; conditions: 4 h; residual activity of the enzyme at 1 mM inhibitor; 0.01% Triton X-100; mean of three experiments; read-out: PBP2a RA [%]
Sequence (P07944 whole entry): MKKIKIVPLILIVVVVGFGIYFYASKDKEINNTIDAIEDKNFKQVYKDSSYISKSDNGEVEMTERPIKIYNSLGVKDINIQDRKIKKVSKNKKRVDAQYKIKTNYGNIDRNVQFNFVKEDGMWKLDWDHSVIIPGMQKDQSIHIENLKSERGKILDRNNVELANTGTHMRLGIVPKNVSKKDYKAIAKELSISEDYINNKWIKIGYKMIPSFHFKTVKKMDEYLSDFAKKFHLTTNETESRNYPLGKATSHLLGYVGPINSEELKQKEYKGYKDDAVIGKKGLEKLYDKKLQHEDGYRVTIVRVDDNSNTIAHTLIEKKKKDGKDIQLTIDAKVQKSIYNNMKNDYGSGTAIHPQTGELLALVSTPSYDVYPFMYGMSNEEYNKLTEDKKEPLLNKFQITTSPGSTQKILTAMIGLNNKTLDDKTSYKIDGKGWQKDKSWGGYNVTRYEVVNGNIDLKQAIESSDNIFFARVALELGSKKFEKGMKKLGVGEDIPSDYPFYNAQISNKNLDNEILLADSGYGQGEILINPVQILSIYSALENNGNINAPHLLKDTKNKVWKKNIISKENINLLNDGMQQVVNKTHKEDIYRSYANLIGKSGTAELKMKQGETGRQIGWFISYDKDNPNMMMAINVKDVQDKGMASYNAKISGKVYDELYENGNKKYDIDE
// reported remaining activity at 1000 µM for each item listed
Report only the number, with the unit % understood.

CCOc1ccc(S(=O)(=O)Nc2ccc(C(=O)O)cc2)cc1 [compound 5]	86
CCCOc1ccc(C(=O)Nc2ccccc2C(=O)O)cc1 [compound 8, 2-(4-Propoxybenzamido)benzoic acid]	60
NC(=O)c1cccc(NS(=O)(=O)c2cccc3cccnc23)c1 [compound 2, 3-(Quinoline-8-sulfonamido)benzamide]	58

// moving on: another record for remaining activity at 1000 µM
In: Which remaining activity at 1000 µM reading was recorded for the molecule O=S(=O)(Nc1ccc(O)cc1)c1cccc2cccnc12 [compound 3] ?
Out: 67

----------
target: PBP2x 5204 (Streptococcus pneumoniae, UniProt P59676); test: PBP2x 5204 enzymatic inhibition assay (S2d hydrolysis, DTNB); details: read-out: PBP2x5204 IC50; in the presence of 0.01% Triton X-100
Sequence (P59676 49-750): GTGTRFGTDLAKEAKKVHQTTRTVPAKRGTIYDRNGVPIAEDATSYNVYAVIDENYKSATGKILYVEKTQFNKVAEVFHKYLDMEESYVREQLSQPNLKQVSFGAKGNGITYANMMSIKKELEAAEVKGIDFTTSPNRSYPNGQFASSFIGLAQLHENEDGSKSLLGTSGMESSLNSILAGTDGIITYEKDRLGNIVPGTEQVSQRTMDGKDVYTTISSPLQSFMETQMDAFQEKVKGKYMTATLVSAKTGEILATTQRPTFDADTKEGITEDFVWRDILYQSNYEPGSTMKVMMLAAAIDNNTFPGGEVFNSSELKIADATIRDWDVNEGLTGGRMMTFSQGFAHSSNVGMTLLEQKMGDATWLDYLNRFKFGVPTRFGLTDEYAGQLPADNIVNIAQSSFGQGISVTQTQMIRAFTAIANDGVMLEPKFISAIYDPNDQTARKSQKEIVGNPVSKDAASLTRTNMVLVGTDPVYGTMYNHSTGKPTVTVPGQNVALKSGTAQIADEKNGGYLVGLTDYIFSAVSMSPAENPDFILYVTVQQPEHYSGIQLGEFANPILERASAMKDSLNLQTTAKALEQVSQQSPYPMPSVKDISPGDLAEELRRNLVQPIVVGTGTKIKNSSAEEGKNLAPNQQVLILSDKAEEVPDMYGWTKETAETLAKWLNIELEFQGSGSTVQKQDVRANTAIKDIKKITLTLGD
MEASURED QUANTITY: pIC50
pIC50 (log units): -log10 of the concentration in mol/L.

CCCCOc1ccc2cc(S(=O)(=O)Nc3ccccc3C(=O)O)ccc2c1	3.41

// moving on: another record for pIC50
In: // fetch PBP2x 5204 (Streptococcus pneumoniae, UniProt P59676) pIC50 for `CCCOc1cccc(C(=O)Nc2ccc(Br)cc2C(=O)O)c1`
Out: 3.81

----------
target: PBP2a (Staphylococcus aureus, UniProt P07944); construct: made in house; assay: PBP2a enzymatic inhibition assay (fluorescein-labeled ampicillin, residual penicillin binding activity); assay type: biochemical, Staphylococcus aureus ATCC 43300; details: 4 h; residual activity of the enzyme at 1 mM inhibitor; 0.01% Triton X-100; mean of three experiments; read-out: PBP2a RA [%]
Threshold 20%: remaining activity at 1000 µM strictly smaller gives 1.0, otherwise 0.0.

CCCOc1cccc(C(=O)Nc2ccc(C)cc2C(=O)O)c1	1.0
CCCOc1cccc(C(=O)Nc2ccc(O)cc2C(=O)O)c1	0.0
CCCOc1cccc(C(=O)Nc2ccc(Br)cc2C(=O)O)c1	1.0
CCCOc1cccc(C(=O)Nc2ccccc2C(=O)O)c1	0.0

In: Problem: For the compound `CCOc1ccc(NS(=O)(=O)c2ccc(C(=O)O)cc2)cc1` , is remaining activity at 1000 µM under 20%?
Out: 0.0

----------
target: PBP5fm (Enterococcus faecium); assay: PBP5fm enzymatic inhibition assay (fluorescein-labeled ampicillin, residual penicillin binding activity); settings: in the presence of 0.01% Triton X-100
MEASURED QUANTITY: IC50 (µM)
Report only the number, with the unit µM understood.

In: Which IC50 reading was recorded for the compound NC(=O)c1cccc(NS(=O)(=O)c2cccc3cccnc23)c1 [compound 2, 3-(Quinoline-8-sulfonamido)benzamide] ?
Out: 930

----------
// reported PBP2x5204 RA [%] for each item listed
target: PBP2x 5204 (Streptococcus pneumoniae); assay: PBP2x 5204 enzymatic inhibition assay (S2d hydrolysis, DTNB); assay type: biochemical, Streptococcus pneumoniae strain 5204; conditions: residual activity of the enzyme at 1 mM inhibitor; 240 min
Report only the number, with the unit % understood.

CCCOc1cccc(C(=O)Nc2ccc(O)cc2C(=O)O)c1	118

In: // fetch PBP2x 5204 (Streptococcus pneumoniae) PBP2x5204 RA [%] for `O=S(=O)(Nc1ccc(O)cc1)c1cccc2cccnc12`
Out: 80

----------
system: Staphylococcus epidermidis ATCC 12228
// reported log10(MIC) for each item listed
log10 MIC, µg/mL

CCCOc1cccc(C(=O)Nc2ccccc2C(=O)O)c1	2.41
CCCOc1ccc(C(=O)Nc2ccc(Br)cc2C(=O)O)cc1	1.20
CCCCOc1ccc2cc(S(=O)(=O)Nc3ccccc3C(=O)O)ccc2c1	1.51
CC1(C)S[C@@H]2[C@H](NC(=O)[C@H](N)c3ccccc3)C(=O)N2[C@H]1C(=O)O [Ampicillin, reference compound]	1.20
CCCOc1cccc(C(=O)Nc2ccc(Br)cc2C(=O)O)c1	0.90

// moving on: another record for log10(MIC)
In: // fetch Staphylococcus epidermidis ATCC 12228 log10(MIC) for `CCCOc1cccc(C(=O)Nc2ccc(C)cc2C(=O)O)c1`
Out: 2.11

----------
target: PBP2a (Staphylococcus aureus); assay: PBP2a enzymatic inhibition assay (fluorescein-labeled ampicillin, residual penicillin binding activity); conditions: in the presence of 0.01% Triton X-100
MEASURED QUANTITY: IC50 (µM)
Report only the number, with the unit µM understood.

// below: answered compounds
CCCCOc1ccc2cc(S(=O)(=O)Nc3ccccc3C(=O)O)ccc2c1	97
CCCOc1cccc(C(=O)Nc2ccc(Br)cc2C(=O)O)c1	230
CCCOc1cccc(C(=O)Nc2ccc(C)cc2C(=O)O)c1	680
CCCOc1cccc(C(=O)Nc2ccccc2C(=O)O)c1	910

// moving on: another record for IC50
In: Which IC50 reading was recorded for the compound `CCCOc1ccc(C(=O)Nc2ccc(Br)cc2C(=O)O)cc1` ?
Out: 210

----------
Target: PBP5fm (Enterococcus faecium)
Experiment: PBP5fm enzymatic inhibition assay (fluorescein-labeled ampicillin, residual penicillin binding activity)
Format: biochemical, Enterococcus faecium D63r
Conditions: 4 h; residual activity of the enzyme at 1 mM inhibitor; 0.01% Triton X-100; read-out: PBP5fm RA [%]
Description: PBP2a from Staphylococcus aureus ATCC 43300 and PBP5fm from Enterococcus faecium D63r were overproduced and purified as described previously, [18]. Each of the purified PBPs (2.5 µM) were first incubated with 1 mM potential inhibitor in 100 mM phosphate buffer, 0.01% Triton X-100[19], pH 7, for 4 h at 30°C. […] Detection and quantification of the RAs were with Molecular Image FX equipment and Quantity One software (BioRad, Hercules, CA, USA). […]
// reported activity at 1000 µM for each item listed
Report only the number, with the unit % understood.

// below: answered compounds
O=S(=O)(Nc1ccc(O)cc1)c1cccc2cccnc12	65
CCCOc1ccc(C(=O)Nc2ccccc2C(=O)O)cc1	74

In: Which activity at 1000 µM reading was recorded for the compound `CCCOc1cccc(C(=O)Nc2ccc(Br)cc2C(=O)O)c1` ?
Out: 72

----------
target: PBP2a (Staphylococcus aureus, UniProt P07944); construct: made in house; assay: PBP2a enzymatic inhibition assay (fluorescein-labeled ampicillin, residual penicillin binding activity); type: biochemical, Staphylococcus aureus ATCC 43300; details: 4 h; residual activity of the enzyme at 1 mM inhibitor; 0.01% Triton X-100; mean of three experiments; read-out: PBP2a RA [%]
MEASURED QUANTITY: remaining activity at 1000 µM (%)
Report only the number, with the unit % understood.

// below: answered compounds
CCCOc1ccc(C(=O)Nc2ccc(Br)cc2C(=O)O)cc1	0
CCCCOc1ccc2cc(S(=O)(=O)Nc3ccccc3C(=O)O)ccc2c1	0

// moving on: another record for remaining activity at 1000 µM
In: Which remaining activity at 1000 µM reading was recorded for the compound `CCCOc1ccc(C(=O)Nc2ccc(O)cc2C(=O)O)cc1` ?
Out: 74

----------
molecular target: PBP5fm (Enterococcus faecium, UniProt Q47759); assay: PBP5fm enzymatic inhibition assay (fluorescein-labeled ampicillin, residual penicillin binding activity); type: biochemical, Enterococcus faecium D63r; conditions: 4 h; residual activity of the enzyme at 1 mM inhibitor; 0.01% Triton X-100; read-out: PBP5fm RA [%]
Sequence (Q47759 entry or part of it): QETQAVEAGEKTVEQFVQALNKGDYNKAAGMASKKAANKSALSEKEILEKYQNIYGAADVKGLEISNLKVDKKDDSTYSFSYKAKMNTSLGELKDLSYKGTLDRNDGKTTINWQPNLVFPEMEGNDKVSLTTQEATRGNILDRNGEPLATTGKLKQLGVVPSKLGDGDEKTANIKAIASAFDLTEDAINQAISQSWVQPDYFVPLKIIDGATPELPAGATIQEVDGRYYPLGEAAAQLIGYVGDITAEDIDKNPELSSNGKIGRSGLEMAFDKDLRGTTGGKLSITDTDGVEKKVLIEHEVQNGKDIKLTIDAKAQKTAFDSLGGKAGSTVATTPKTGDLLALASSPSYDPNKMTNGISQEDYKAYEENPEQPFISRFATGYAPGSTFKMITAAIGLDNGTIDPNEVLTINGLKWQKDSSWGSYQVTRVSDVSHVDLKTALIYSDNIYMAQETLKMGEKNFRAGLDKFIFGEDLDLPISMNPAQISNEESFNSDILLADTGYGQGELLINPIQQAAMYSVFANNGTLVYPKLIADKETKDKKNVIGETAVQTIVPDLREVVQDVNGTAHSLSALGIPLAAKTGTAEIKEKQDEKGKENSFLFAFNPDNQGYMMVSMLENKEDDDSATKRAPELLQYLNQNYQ
MEASURED QUANTITY: activity at 1000 µM (%)
Report only the number, with the unit % understood.

CCOc1ccc(NS(=O)(=O)c2ccc(C(=O)O)cc2)cc1	100
CCCOc1cccc(C(=O)Nc2ccc(O)cc2C(=O)O)c1	61
CCCOc1ccc(C(=O)Nc2ccc(Br)cc2C(=O)O)cc1	68
CCOc1ccc(S(=O)(=O)Nc2ccc(C(=O)O)cc2)cc1	73

In: Which activity at 1000 µM reading was recorded for the compound `CCCCOc1ccc2cc(S(=O)(=O)Nc3ccccc3C(=O)O)ccc2c1` ?
Out: 100

In: Which activity at 1000 µM reading was recorded for the compound `CCCOc1cccc(C(=O)Nc2ccccc2C(=O)O)c1` ?
Out: 34

In: Which activity at 1000 µM reading was recorded for the compound `CCCOc1ccc(C(=O)Nc2ccc(O)cc2C(=O)O)cc1` ?
Out: 72

In: Which activity at 1000 µM reading was recorded for the compound NC(=O)c1cccc(NS(=O)(=O)c2cccc3cccnc23)c1 [compound 2, 3-(Quinoline-8-sulfonamido)benzamide] ?
Out: 39

In: Which activity at 1000 µM reading was recorded for the compound `CCCOc1cccc(C(=O)Nc2ccc(C)cc2C(=O)O)c1` ?
Out: 69
